Provenance of the data: PubChem BioAssay AID1159580

normalized growth values by entry
# measurementProtocol: chemical genetic growth profiling, strain panel (AID 1159580);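 note: tested at 20 µM; growth read once vehicle control cultures reached saturation at 30 °C; 1 = growth at the plate median or of vehicle wells; lower values mean less growth of the strain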
# experimentalConditions: S. cerevisiae deletion strains, growth OD, locus YNL128W, strain TEP1, stronger effect = lower value
Screen size: about 5,500 compounds; about 2,000 (36%) were called active. Another 18% or so got no clear call; they are omitted. The list shows a part of the results.
Just the number.

// solved cases for normalized growth follow
O=C(CCCCCCCCCCCCC1CCCC1)Nc1ccc(S(=O)(=O)c2ccc(NC(=O)CCCCCCCCCCCCC3CCCC3)cc2)cc1
1.04
O=C(O)c1ccccc1Nc1ccccc1
0.973

Below: the item to evaluate.
Ask: Look up normalized growth for this molecule: "O=C(COC(=O)c1ccccc1Nc1cccc(F)c1)c1ccccc1"
Reply: 0.987

====

# measurementProtocol: chemical genetic growth profiling, strain panel (AID 1159580);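 note: tested at 20 µM; growth read once vehicle control cultures reached saturation at 30 °C; 1 = growth at the plate median or of vehicle wells; lower values mean less growth of the strain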
# experimentalConditions: S. cerevisiae deletion strains, growth OD, locus YOR290C, strain snf2, stronger effect = lower value
Hit rate of the full screen: of about 5,500 compounds, about 2,000 (36%) were called active. Roughly 18% stayed inconclusive and do not appear here. The list shows a part of the results.
recordedEndpoint: normalized growth
The answer should be written as a number, with no unit following it.

Example cases with answers are listed next.
CCOC(=O)c1oc2c(OC)c(O)cc(O)c2c(=O)c1-c1cc(OC)c(OC)c(OC)c1
0.959
O=C(OC1Cc2c(O)cc(O)cc2OC1c1cc(O)c(O)c(O)c1-c1c(C2Oc3cc(O)cc(O)c3CC2OC(=O)c2cc(O)c(O)c(O)c2)cc(O)c(O)c1O)c1cc(O)c(O)c(O)c1 (stereo not given)
0.985
O=[N+]([O-])c1ccc(O)c([N+](=O)[O-])c1
0.826
Nc1ccc([As](=O)(O)O)cc1
1

Ask: What does the record list as normalized growth for "CCOP(=S)(OCC)SCn1c(=O)oc2cc(Cl)ccc21" ?
Reply: 0.963

====

# measurementProtocol: chemical genetic growth profiling, strain panel (AID 1159580);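 note: tested at 20 µM; growth read once vehicle control cultures reached saturation at 30 °C; 1 = growth at the plate median or of vehicle wells; lower values mean less growth of the strain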
# experimentalConditions: S. cerevisiae deletion strains, growth OD, locus YFR010W, strain ubp6, stronger effect = lower value
The whole screen tested about 5,500 compounds, of which about 2,000 (36%) were called active. Inconclusive results (about 18%) are left out. The list shows a part of the results.
recordedEndpoint: normalized growth
Please state the value as a number alone, without comment.

// solved cases for normalized growth follow
CCCCC(CC)CN1CN(CC(CC)CCCC)CC(C)(N)C1 (stereo unspecified)
0.0701
NCCCC[C@H](N[C@@H](CCc1ccccc1)C(=O)O)C(=O)N1CCC[C@H]1C(=O)O
1.01
Oc1c(I)cc(I)c2cccnc12
0.0943
O=C(O)CCCCC1CCSS1 (stereo unspecified)
0.962
O[N+]1=CC=CCC1=S.On1ccccc1=S.[Zn]
0.0685

Proceed to the following item.
Ask: Tell me the measured normalized growth of "CNC[C@@H](O)c1ccc(O)c(O)c1" , please.
Reply: 0.993

====

# measurementProtocol: chemical genetic growth profiling, strain panel (AID 1159580);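 note: tested at 20 µM; growth read once vehicle control cultures reached saturation at 30 °C; 1 = growth at the plate median or of vehicle wells; lower values mean less growth of the strain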
# experimentalConditions: S. cerevisiae deletion strains, growth OD, locus YNL298W, strain CLA4, stronger effect = lower value
Among all 5,500 compounds or so, about 2,000 (36%) were called active. Not shown: some 18% with an inconclusive outcome. Some of the results follow.
recordedEndpoint: normalized growth
No unit in the answer, only the number.

Example results:
C=C(C)[C@H]1CC=C(C(=O)O)CC1
0.814
CS(=O)(=O)CCCCN=C=S
0.906
O=C(O)/C=C/C=C/c1ccccc1
0.692
CC(=O)Nc1cc([As](=O)(O)O)ccc1O
1
COc1ccc(C(Cl)=C(c2ccc(OC)cc2)c2ccc(OC)cc2)cc1
1.01
NCCNC(=O)c1ccc(Cl)cc1
0.96

Ask: Query: normalized growth; subject: "C[n+]1cccc(C(=O)[O-])c1"
Reply: 1.02

Ask: Query: normalized growth; subject: "CCN(CC)CCOc1ccc(/C(=C(\Cl)c2ccccc2)c2ccccc2)cc1"
Reply: 0.914

Ask: May I ask what normalized growth has been recorded for "CC(=O)Oc1ccc(Cl)c2cccnc12" ?
Reply: 0.0622

Ask: Fill in: normalized growth of "Cc1occc(=O)c1/C=C/O" is ___
Reply: 1.02

Ask: Item under review: "O=[N+]([O-])c1cc(O)c(O)c([N+](=O)[O-])c1" . Reported normalized growth?
Reply: 0.994

Ask: What normalized growth value was documented for this compound, COC(=O)[C@]1(C)CC[C@]2(C)CC[C@]3(C)C4=CCc5c(cc(O)c(O)c5C)[C@]4(C)CC[C@@]3(C)C2C1 (some centres undefined) ?
Reply: 1.01

Ask: // lookup normalized growth for "Cc1occc(=O)c1O"
Reply: 1.05

Ask: Recorded normalized growth of "C=C[C@](C)(O)CCC=C(C)C" , please.
Reply: 1.02

Ask: Request the reported normalized growth associated with "OC[C@@H]1CCCN2CCCC[C@H]12"
Reply: 1.01

Ask: Entry COC(=O)C[C@H]1C(C)(C)C(=O)[C@@H]2CC3=C4CC(=O)O[C@@H](c5ccoc5)[C@]4(C)CCC3[C@@]1(C)C2=O (some centres undefined) : reported normalized growth = ?
Reply: 1.03
